Kd: recorded values
MEASUREMENT TARGET: T1, PCPE-1 (Procollagen C-proteinase enhancer-1) glycoprotein, human (human, UniProt Q15113 26-449)
T1 construct: mature; Secreted recombinant protein; also called purified human PCPE-1
T1 sequence (looked up): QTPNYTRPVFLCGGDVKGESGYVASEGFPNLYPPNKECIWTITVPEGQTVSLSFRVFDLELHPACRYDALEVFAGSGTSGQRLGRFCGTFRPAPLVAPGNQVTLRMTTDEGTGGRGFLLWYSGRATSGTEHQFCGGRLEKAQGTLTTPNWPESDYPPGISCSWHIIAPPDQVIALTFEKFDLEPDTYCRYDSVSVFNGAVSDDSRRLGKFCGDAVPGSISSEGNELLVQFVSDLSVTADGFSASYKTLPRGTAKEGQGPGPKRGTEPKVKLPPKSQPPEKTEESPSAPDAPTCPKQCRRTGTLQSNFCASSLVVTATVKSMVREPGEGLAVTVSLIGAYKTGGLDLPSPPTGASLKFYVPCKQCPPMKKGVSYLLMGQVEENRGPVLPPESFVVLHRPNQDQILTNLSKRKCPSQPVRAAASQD
TEST: SPR, VHH injected on immobilized PCPE-1

VHH-H6 (VHH, Synthetic nanobody (hsd2ab library), pET29b(+) vector, pelB signal; not shown: C-terminal 6-His tag) VHH: EVQLQASGGGFVQPGGSLRLSCAASGFTSARYNMGWFRQAPGKEREFVSAISRHTDRQTYYADSVKGRFTISRDNSKNTVYLQMNSLRAEDTATYYCAVGMMPKQKQYWGQGTQVTVSS    > 250 nM
VHH-H3 (VHH, Synthetic nanobody (hsd2ab library), pET29b(+) vector, pelB signal; not shown: C-terminal 6-His tag) VHH: EVQLQASGGGFVQPGGSLRLSCAASGATYWFSSMGWFRQAPGKEREFVSAISYWFDDIEYYADSVKGRFTISRDNSKNTVYLQMNSLRAEDTATYYCAMWNEQTGEEYWGQGTQVTVSS    > 250 nM
VHH-H10 (VHH, Synthetic nanobody (hsd2ab library), pET29b(+) vector, pelB signal; not shown: C-terminal 6-His tag) VHH: EVQLQASGGGFVQPGGSLRLSCAASGYGWWIYEMGWFRQAPGKEREFVSAISWADGTRTYYADSVKGRFTISRDNSKNTVYLQMNSLRAEDTATYYCAIYILEGTQGVPIYWGQGTQVTVSS    18 nM

As a next step, examine the binder that follows.
Entry VHH-H9 (VHH, Synthetic nanobody (hsd2ab library), pET29b(+) vector, pelB signal; not shown: C-terminal 6-His tag) VHH: EVQLQASGGGFVQPGGSLRLSCAASGDTFNLTTMGWFRQAPGKEREFVSAISSSNTHIAYYADSVKGRFTISRDNSKNTVYLQMNSLRAEDTATYYCAYTYYGKNGKGMVYWGQGTQVTVSS , Kd reported as > 250 nM
